# RUN DESCRIPTION: chemical genetic growth profiling, strain panel (AID 1159580);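 also: tested at 20 µM; growth read once vehicle control cultures reached saturation at 30 °C; 1 = growth at the plate median or of vehicle wells; lower values mean less growth of the strain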
# CONDITIONS: S. cerevisiae deletion strains, growth OD, locus YHR094C, strain hxt1, hits give low values
Out of some 5,500 compounds screened, about 2,000 (36%) were called active. About 18% were inconclusive and are not listed. This is one part of the list.
Reported normalized growth by item:

# MOLECULE, normalized growth
data = [
    ("COc1cc2c(cc1O)CC1c3c(cc(O)c(OC)c3-2)CCN1C (stereo unspecified)", 1),
    ("O=C1CN(/N=C\\c2ccc([N+](=O)[O-])o2)C(=O)N1", 0.999),
    ("CCn1cc(C(=O)O)c(=O)c2cnc(N3CCCC3)nc21", 0.999),
    ("COc1ccc(C[C@H](N)C(=O)N[C@@H]2[C@@H](CO)OC(n3cnc4c(N(C)C)ncnc43)[C@@H]2O)cc1 (stereo partly specified)", 1.02),
    ("CC1(C)CC2C1CCC1(C)OC2(C)CCC1O (stereo unspecified)", 1.02),
    ("CCCNC(C)C(=O)Nc1ccccc1C (stereo unspecified)", 0.982),
    ("C=CCN1CC[C@]23c4c5ccc(O)c4OC2C(=O)CC[C@@]3(O)[C@H]1C5 (stereo partly specified)", 1),
    ("CC(=O)N[C@@H]1[C@@H](C(O)[C@H](O)CO)O[C@](O)(C(=O)O)C[C@@H]1O (stereo partly specified)", 1.01),
    ("CCn1cc(C(=O)O)c(=O)c2ccc(C)nc21", 0.923),
    ("O=c1cccc2n1C[C@H]1CNCC2C1", 0.995),
    ("CN1CCc2cccc3c2C1Cc1ccc(O)c(O)c1-3 (stereo unspecified)", 0.99),
]

----------
# RUN DESCRIPTION: chemical genetic growth profiling, strain panel (AID 1159580);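 also: tested at 20 µM; growth read once vehicle control cultures reached saturation at 30 °C; 1 = growth at the plate median or of vehicle wells; lower values mean less growth of the strain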
# CONDITIONS: S. cerevisiae strains, growth OD, strain wild type
Screen size: about 5,500 compounds; about 2,000 (36%) were called active. Roughly 18% stayed inconclusive and do not appear here. No stated cut-off is given here; in the data, active means normalized growth mostly below about 0.91 (no sharp cut-off); inconclusive means no clear call, values can overlap the other calls; inactive means mostly above about 0.92. The list shows a part of the results.
Labels: True (active), False (inactive)

# COMPOUND, GROUP
rows = [
    ("OCC(S)CS (stereo not given)", "False"),
    ("Cc1cccc(CN2CCN(C(c3ccccc3)c3ccc(Cl)cc3)CC2)c1 (stereo not given)", "True"),
    ("Cc1onc(-c2ccccc2Cl)c1C(=O)Nc1ccc(S(=O)(=O)Nc2nccs2)cc1", "False"),
    ("C[C@H](COc1ccccc1)N[C@H](C)[C@H](O)c1ccc(O)cc1", "False"),
    ("CO[C@@H]1C[C@@H](C[C@H]2CC[C@H](C)[C@H]([C@@H](C)C(=O)O)O2)O[C@]2(O[C@](C)([C@H]3CC[C@@](C)(C4O[C@@H](C5O[C@@](O)(CO)[C@H](C)C[C@@H]5C)C[C@@H]4C)O3)C[C@H]2C)[C@@H]1C (stereo not given in full)", "False"),
    ("CSc1nc2ccc(NC(=O)c3c(-c4ccccc4)noc3C)cc2s1", "False"),
    ("COc1ccccc1N1CCNCC1", "False"),
    ("C=CCc1cc(OC)c2c(c1OC)OCO2", "False"),
    ("CC(C)(C)OC(=O)N1CCN(Cc2ccccc2)CC1", "False"),
    ("COP(=S)(OC)Oc1ccc(SC)c(C)c1", "False"),
]

Attribution: PubChem BioAssay AID1159580
